Biological target: pooled human IgG (human IgG1, 2, 3 and 4) (human); also: test concentration or dose not given here
Experiment: cell-based or functional assay
Metric name: Enzyme Activity Endpoint Assay: IgG (ng/µL)
Numbers only, in ng/µL.

Q) I would be grateful if you could share the reported Enzyme Activity Endpoint Assay: IgG for PRT-378 (enzyme) MVTSVWTKGVTPPTNFTYGEDVLHAPYVANQGWYDITKTFNGKDDLLCGAATAGNMLHWWFDQNKEQIENYLKKHPEKQKINFNGEQMFDVKEAIDTKDSQLDSKLFEYFKEKAFPSLSTKHLGVFPDHVIDMFINGYRLSLTNHGPTPVKRGSKDPRGGIFDAVFTRGDQSKLLTNRHDFKEKTLKEISDLIKQELTEGKALGISHTYANVRINHVINLWGADFDAEGNLEAIYVTDSDSNASIGMKKYFVGVNSNGKVAISAKEIEEDNIGAQVLGLFTLSTGQDIWNQTN .
A) 0
